molecular target: Proliferating Cell Nuclear Antigen (PCNA), human (human, homotrimeric ring; GlySerHis tag remnant before Met1 left out; 2H/15N(/13C) labelled for NMR, natural abundance for ITC); assay: ITC; PCNA (11.2–13.4 µM protomers) in the cell titrated with peptide (117 µM p21^20, 363 p21^12); PBS pH 7.0, 30°C; single set of identical sites; details: both partners purified
Sequence (chain, as listed by the source): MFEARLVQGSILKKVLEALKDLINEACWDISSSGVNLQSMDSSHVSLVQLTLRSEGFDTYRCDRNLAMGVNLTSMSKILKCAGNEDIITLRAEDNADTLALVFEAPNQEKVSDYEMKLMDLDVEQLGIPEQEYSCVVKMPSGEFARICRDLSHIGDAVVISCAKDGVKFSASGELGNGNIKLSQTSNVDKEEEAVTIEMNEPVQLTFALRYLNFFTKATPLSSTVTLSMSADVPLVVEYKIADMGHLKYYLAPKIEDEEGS
assay-readout: pKd
Scale for pKd: -log10 of concentration given in mol/L; no unit attached.

Fill in the blank: the reported pKd of KRRQTSMTDFYH (source: lyophilized peptide) [p21 fragment 141-152 (p21^12), shorter PIP-box peptide of the Cyclin-dependent kinase inhibitor 1] is ____.
6.19
